Molecular target: human α4β7 integrin (Homo sapiens, UniProt P13612+P26010)
Construct: expressed in transfected cells; host or cells: K562 cells, stably transfected
Assay: α4β7-K562 Cell Adhesion Assay (α4β7 Mediated Adhesion/MAdCAM-1)
Format: cell-based
Conditions: K562 cells expressing human α4β7 adhering to FLAG-hMAdCAM-1, 1 mM Mn2+; read-out: α4β7, Madcam IC50
Outcome Measure: IC50

Solved entries (count: 4):
{"Compound": "O=C(Nc1ccc(C[C@H](NC(=O)[C@@H]2CCc3nn(Cc4ccccc4)c(=O)n32)C(=O)O)cc1)c1c(Cl)cccc1Cl", "Tgt": "human α4β7 integrin (Homo sapiens, UniProt P13612+P26010)", "IC50": "200 nM"}
{"Compound": "COc1cccc(OC)c1-c1ccc(CC(NC(=O)C2CCc3nnc(Cc4c[nH]c5ccccc45)n32)C(=O)O)cc1 (stereo not shown)", "Tgt": "human α4β7 integrin (Homo sapiens, UniProt P13612+P26010)", "IC50": "40 nM"}
{"Compound": "O=C(Nc1ccc(C[C@H](NC(=O)[C@@H]2CCc3n[nH]c(=O)n32)C(=O)O)cc1)c1c(Cl)cncc1Cl", "Tgt": "human α4β7 integrin (Homo sapiens, UniProt P13612+P26010)", "IC50": "50 nM"}
{"Compound": "O=C(Nc1ccc(C[C@H](NC(=O)[C@@H]2CCc3nnc(Cc4ccsc4)n32)C(=O)O)cc1)c1c(Cl)cccc1Cl", "Tgt": "human α4β7 integrin (Homo sapiens, UniProt P13612+P26010)", "IC50": "120 nM"}

Please report IC50 for the following compound: O=C(Nc1ccc(C[C@H](NC(=O)[C@@H]2CCc3n[nH]c(=O)n32)C(=O)O)cc1)c1c(Cl)cccc1Cl
90 nM

Please report IC50 for the following compound: O=C(Nc1ccc(C[C@H](NC(=O)[C@@H]2CCc3nnc(Cc4ccccc4)n32)C(=O)O)cc1)c1c(Cl)cccc1Cl
290 nM

Please report IC50 for the following compound: O=C(Nc1ccc(C[C@H](NC(=O)[C@@H]2CCc3nnc(Cc4ccccc4)n32)C(=O)O)cc1)c1ccc2ccccc2c1
> 5000 nM

###

Biological target: α4β1 (Homo sapiens, UniProt P05556+P13612)
Assay: Ramos Cell Adhesion Assay (α4β1 Mediated Adhesion/VCAM-1)
Assay type: cell-based
Parameters: Ramos Cell Adhesion Assay (α4β1 Mediated Adhesion/VCAM-1); endogenous in cells; host or cells: Ramos cells
Settings: Ramos cells adhering to recombinant hVCAM-1; read-out: α4β1 IC50
Outcome Measure: IC50

{"Compound": "O=C(NCc1nnc2n1[C@H](C(=O)N[C@@H](Cc1ccc(NC(=O)c3c(Cl)cccc3Cl)cc1)C(=O)O)CC2)OCc1ccccc1", "Tgt": "α4β1 (Homo sapiens, UniProt P05556+P13612)", "IC50": "> 5 µM"}
{"Compound": "O=C(Nc1ccc(C[C@H](NC(=O)[C@@H]2CCc3nnc(Cc4ccccc4)n32)C(=O)O)cc1)c1c(Cl)cccc1Cl", "Tgt": "α4β1 (Homo sapiens, UniProt P05556+P13612)", "IC50": "0.62 µM"}
{"Compound": "O=C(Nc1ccc(C[C@H](NC(=O)[C@@H]2CCc3n[nH]c(=O)n32)C(=O)O)cc1)c1c(Cl)cccc1Cl", "Tgt": "α4β1 (Homo sapiens, UniProt P05556+P13612)", "IC50": "0.85 µM"}
{"Compound": "NCc1nnc2n1[C@H](C(=O)N[C@@H](Cc1ccc(NC(=O)c3c(Cl)cccc3Cl)cc1)C(=O)O)CC2", "Tgt": "α4β1 (Homo sapiens, UniProt P05556+P13612)", "IC50": "> 5 µM"}
{"Compound": "O=C(Nc1ccc(C[C@H](NC(=O)[C@@H]2CCc3nn(Cc4ccccc4)c(=O)n32)C(=O)O)cc1)c1c(Cl)cccc1Cl", "Tgt": "α4β1 (Homo sapiens, UniProt P05556+P13612)", "IC50": "> 5 µM"}
{"Compound": "COc1cccc(OC)c1-c1ccc(CC(NC(=O)C2CCc3nnc(Cc4c[nH]c5ccccc45)n32)C(=O)O)cc1 (stereo not shown)", "Tgt": "α4β1 (Homo sapiens, UniProt P05556+P13612)", "IC50": "> 5 µM"}

# ---- query compound ----
Please report IC50 for the following compound: O=C(Nc1ccc(C[C@H](NC(=O)[C@@H]2CCc3nnc(Cc4ccccc4)n32)C(=O)O)cc1)c1ccc2ccccc2c1
> 5 µM

###

Quick list: pIC50 per entry.
Molecular target: human α4β7 integrin (Homo sapiens, UniProt P13612+P26010)
Construct: expressed in transfected cells; host or cells: K562 cells, stably transfected
Sequence (P13612 34-1032): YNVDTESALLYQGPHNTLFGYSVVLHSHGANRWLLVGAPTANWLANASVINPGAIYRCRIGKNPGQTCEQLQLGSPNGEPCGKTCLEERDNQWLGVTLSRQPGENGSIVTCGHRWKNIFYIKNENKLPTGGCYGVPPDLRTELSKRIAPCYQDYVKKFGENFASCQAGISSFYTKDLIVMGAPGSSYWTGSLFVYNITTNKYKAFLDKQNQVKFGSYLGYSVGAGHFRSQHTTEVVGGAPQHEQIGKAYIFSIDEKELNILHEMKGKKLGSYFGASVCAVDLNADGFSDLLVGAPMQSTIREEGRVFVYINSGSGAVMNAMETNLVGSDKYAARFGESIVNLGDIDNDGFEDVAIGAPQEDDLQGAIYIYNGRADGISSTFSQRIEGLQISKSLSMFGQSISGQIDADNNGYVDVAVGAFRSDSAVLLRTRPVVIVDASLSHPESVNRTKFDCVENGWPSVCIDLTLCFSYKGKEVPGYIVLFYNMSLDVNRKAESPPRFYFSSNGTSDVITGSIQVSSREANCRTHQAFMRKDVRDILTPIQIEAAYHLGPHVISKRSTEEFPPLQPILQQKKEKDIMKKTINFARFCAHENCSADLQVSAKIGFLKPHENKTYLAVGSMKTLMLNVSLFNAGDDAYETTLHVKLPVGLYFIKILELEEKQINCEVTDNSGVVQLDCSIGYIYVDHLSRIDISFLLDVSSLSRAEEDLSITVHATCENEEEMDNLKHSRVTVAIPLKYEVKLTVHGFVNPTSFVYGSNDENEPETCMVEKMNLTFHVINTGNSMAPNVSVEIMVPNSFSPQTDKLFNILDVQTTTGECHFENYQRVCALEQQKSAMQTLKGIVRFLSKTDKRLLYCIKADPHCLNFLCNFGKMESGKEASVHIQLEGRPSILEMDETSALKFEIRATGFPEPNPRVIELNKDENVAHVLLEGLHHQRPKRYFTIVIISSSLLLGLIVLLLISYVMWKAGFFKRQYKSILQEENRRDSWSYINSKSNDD
Sequence (P26010 20-798): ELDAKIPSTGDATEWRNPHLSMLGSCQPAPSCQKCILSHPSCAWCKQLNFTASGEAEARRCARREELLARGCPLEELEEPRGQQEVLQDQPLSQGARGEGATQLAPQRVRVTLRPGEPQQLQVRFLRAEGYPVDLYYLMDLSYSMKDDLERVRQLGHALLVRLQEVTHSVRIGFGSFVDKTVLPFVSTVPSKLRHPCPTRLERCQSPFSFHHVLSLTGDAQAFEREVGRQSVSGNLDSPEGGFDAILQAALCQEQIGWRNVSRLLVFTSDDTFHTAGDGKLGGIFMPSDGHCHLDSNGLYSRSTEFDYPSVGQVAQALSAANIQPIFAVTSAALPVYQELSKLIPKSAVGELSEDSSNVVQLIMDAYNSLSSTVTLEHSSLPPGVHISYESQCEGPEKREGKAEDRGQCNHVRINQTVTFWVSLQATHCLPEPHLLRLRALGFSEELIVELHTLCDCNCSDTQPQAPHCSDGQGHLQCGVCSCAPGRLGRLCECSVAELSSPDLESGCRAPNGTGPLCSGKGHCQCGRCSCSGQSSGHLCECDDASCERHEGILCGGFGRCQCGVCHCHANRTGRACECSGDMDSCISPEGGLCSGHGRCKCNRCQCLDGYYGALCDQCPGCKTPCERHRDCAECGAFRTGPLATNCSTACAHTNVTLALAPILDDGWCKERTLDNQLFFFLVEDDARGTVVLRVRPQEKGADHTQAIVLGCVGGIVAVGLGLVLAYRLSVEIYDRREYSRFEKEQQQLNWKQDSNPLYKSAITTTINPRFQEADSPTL
Experiment: α4β7-K562 Cell Adhesion Assay (α4β7 Mediated Adhesion/MAdCAM-1)
Assay type: cell-based
Conditions: K562 cells expressing human α4β7 adhering to FLAG-hMAdCAM-1, 1 mM Mn2+; read-out: α4β7, Madcam IC50
Convention used: pIC50 is expressed as -log10 of the molar concentration.

Solved entries (count: 3):
{"Smiles": "CCCc1nnc2n1[C@H](C(=O)N[C@@H](Cc1ccc(NC(=O)c3c(Cl)cccc3Cl)cc1)C(=O)O)CC2", "Tgt": "human α4β7 integrin (Homo sapiens, UniProt P13612+P26010)", "Recorded Measurement": 7.10}
{"Smiles": "O=C(Nc1ccc(C[C@H](NC(=O)[C@@H]2CCc3nnc(Cc4ccccc4)n32)C(=O)O)cc1)c1c(Cl)cncc1Cl", "Tgt": "human α4β7 integrin (Homo sapiens, UniProt P13612+P26010)", "Recorded Measurement": 7.70}
{"Smiles": "O=C(Nc1ccc(C[C@H](NC(=O)[C@@H]2CCc3nnc(Cc4ccccc4)n32)C(=O)O)cc1)c1cccc2c1-c1ccccc1C2=O", "Tgt": "human α4β7 integrin (Homo sapiens, UniProt P13612+P26010)", "Recorded Measurement": 6.46}

Please report pIC50 for the following molecule: O=C(NCc1nnc2n1[C@H](C(=O)N[C@@H](Cc1ccc(NC(=O)c3c(Cl)cccc3Cl)cc1)C(=O)O)CC2)OCc1ccccc1
6.26

Please report pIC50 for the following molecule: COc1cccc(OC)c1-c1ccc(C[C@H](NC(=O)[C@@H]2CCc3nnc(Cc4ccsc4)n32)C(=O)O)cc1
7.05

Please report pIC50 for the following molecule: O=C(Nc1ccc(C[C@H](NC(=O)[C@@H]2CCc3nn(Cc4ccccc4)c(=O)n32)C(=O)O)cc1)c1c(Cl)cncc1Cl
6.11

Please report pIC50 for the following molecule: COc1cnn(C)c(=O)c1-c1ccc(C[C@H](NC(=O)[C@@H]2CCc3nnc(Cc4ccccc4)n32)C(=O)O)cc1
6.40
